Hey, just so you know, these numbers are from patent US8119624B2.

- System Under Test: Full-length glucokinase (beta cell isoform) (Homo sapiens)
- Construct: Full-length glucokinase (beta cell isoform) was His-tagged at N-terminus; His tag (N); made in house
- Assay Procedure: Glucokinase biochemical assay (PK/LDH-coupled, NADH depletion at 340 nm): % activation, EC50, % max activation
- Test Conditions: 5 mM glucose; GK activation; read-out: EC50
Quantity Measured: EC50

For record Cn1ccc(NC(=O)c2cc(Oc3ccc(C(=O)O)nc3)c3c(c2)OC(C)(C)C3)n1 the listed EC50 is > 10 µM

For record Cn1ccc(NC(=O)c2cc(Oc3ccc(S(C)(=O)=O)cc3)c3cc(CN4CCCC4=O)oc3c2)n1 the listed EC50 is > 10 µM

For record Cn1ccc(NC(=O)c2cc(Oc3ccc(S(C)(=O)=O)cc3)cc3c2CC(C)(C)O3)n1 the listed EC50 is > 10 µM

---

- System Under Test: Full-length glucokinase (beta cell isoform) (Homo sapiens, UniProt P35557)
- Construct: Full-length glucokinase (beta cell isoform) was His-tagged at N-terminus; His tag (N); made in house
- Sequence (P35557 whole entry, species assumed, canonical isoform): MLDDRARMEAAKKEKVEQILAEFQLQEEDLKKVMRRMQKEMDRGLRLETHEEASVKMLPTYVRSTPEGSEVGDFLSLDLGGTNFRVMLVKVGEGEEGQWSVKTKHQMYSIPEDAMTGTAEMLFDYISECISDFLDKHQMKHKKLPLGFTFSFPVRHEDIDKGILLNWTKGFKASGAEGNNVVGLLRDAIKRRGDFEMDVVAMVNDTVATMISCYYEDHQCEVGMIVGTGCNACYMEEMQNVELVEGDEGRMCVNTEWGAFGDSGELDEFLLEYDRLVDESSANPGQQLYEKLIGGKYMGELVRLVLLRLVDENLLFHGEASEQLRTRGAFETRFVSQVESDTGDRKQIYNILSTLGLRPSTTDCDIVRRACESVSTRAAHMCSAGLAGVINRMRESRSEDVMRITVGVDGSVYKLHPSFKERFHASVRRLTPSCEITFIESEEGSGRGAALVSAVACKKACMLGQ
- Assay Procedure: Glucokinase biochemical assay (PK/LDH-coupled, NADH depletion at 340 nm): % activation, EC50, % max activation
- Test Conditions: 5 mM glucose; GK activation; read-out: EC50
Quantity Measured: pEC50
When answering, recall that pEC50 equals minus log10 of the concentration in mol/L, and write that number alone.

Lab note: compound Cc1ccc(NC(=O)c2cc(Oc3ccc(S(C)(=O)=O)cc3)c3c(c2)OC(C)(CO)C3)nc1 (stereo not drawn) [Example 230] tested on Full-length glucokinase (beta cell isoform) (Homo sapiens, UniProt P35557); recorded pEC50 was 6.48

Lab note: compound Cn1ccc(NC(=O)c2cc(Oc3ccc(S(C)(=O)=O)cc3)c3c(c2)OC(C)(C)C3)n1 [Example 16] tested on Full-length glucokinase (beta cell isoform) (Homo sapiens, UniProt P35557); recorded pEC50 was 6.30

Lab note: compound CCn1ncc(NC(=O)c2cc(Oc3ccc(S(C)(=O)=O)cc3)c3c(c2)OC(C)(C)C3)n1 [Example 29] tested on Full-length glucokinase (beta cell isoform) (Homo sapiens, UniProt P35557); recorded pEC50 was 6.60

---

Exercise: state measured Emax for each of the compounds provided.
- System Under Test: Full-length glucokinase (beta cell isoform) (Homo sapiens, UniProt P35557)
- Construct: Full-length glucokinase (beta cell isoform) was His-tagged at N-terminus; His tag (N); made in house
- Assay Procedure: Glucokinase biochemical assay (PK/LDH-coupled, NADH depletion at 340 nm): % activation, EC50, % max activation
- Test Conditions: 5 mM glucose; fitted maximum activation; read-out: % Max Activation
Give the quantity in %, number only.

For record Cn1ccc(NC(=O)c2cc(Oc3cc(F)ccc3S(C)(=O)=O)c3c(c2)OC(C)(C)C3)n1 the listed Emax is 141

For record Cc1nnc(NC(=O)c2cc(Oc3ccc(S(C)(=O)=O)cc3)c3c(c2)OC(C)(C)C3)s1 the listed Emax is 140

For record Cc1ccc(NC(=O)c2cc(Oc3ccc(S(C)(=O)=O)cc3)c3occc3c2)nc1 the listed Emax is 106

For record Cn1ccc(NC(=O)c2cc(Oc3cc(F)c(C(=O)N4CCC4)c(F)c3)c3c(c2)OC(C)(C)C3)n1 the listed Emax is 131

For record CN(C)C1CN(C(=O)c2ccc(Oc3cc(C(=O)Nc4ccn(C)n4)cc4c3CC(C)(C)O4)cc2F)C1 the listed Emax is 148

For record Cn1ccc(NC(=O)c2cc(Oc3ccc(C(=O)NCCO)c(F)c3)c3c(c2)OC(C)(C)C3)n1 the listed Emax is 161

For record Cc1ccc(NC(=O)c2cc(Oc3ccc(S(C)(=O)=O)cc3)c3sccc3c2)nc1 the listed Emax is 99

For record Cn1ccc(NC(=O)c2cc(Oc3ccc(C(=O)N4CC(O)C4)cc3F)c3c(c2)OC(C)(C)C3)n1 the listed Emax is 146

For record COc1cnc(NC(=O)c2cc(Oc3ccc(S(C)(=O)=O)cc3)c3cc(C)oc3c2)cn1 the listed Emax is 146

For record CN(C)C1CN(C(=O)c2ccc(Oc3cc(C(=O)Nc4ccn(C)n4)cc4c3CC(C)(C)O4)cc2)C1 the listed Emax is 147

For record Cn1ncc(NC(=O)c2cc(Oc3ccc(C(=O)N4CCC4)c(F)c3)c3c(c2)OC(C)(C)C3)n1 the listed Emax is 260

For record Cn1ccc(NC(=O)c2cc(OC3CN(S(C)(=O)=O)C3)c3c(c2)OC(C)(C)C3)n1 the listed Emax is 237

For record Cn1ncc(NC(=O)c2cc(Oc3ccc(S(C)(=O)=O)cc3Cl)c3c(c2)OC(C)(C)C3)n1 the listed Emax is 223

For record Cn1ccc(NC(=O)c2cc(Oc3ccc(C#N)c(F)c3)c3c(c2)OC(C)(C)C3)n1 the listed Emax is 236

For record Cn1ccc(NC(=O)c2cc(Oc3ccc(C(=O)N4CC(F)(F)C4)c(F)c3)c3c(c2)OC(C)(C)C3)n1 the listed Emax is 151

For record CCCc1noc(COc2cc(C(=O)Nc3ccn(C)n3)cc3c2CC(C)(C)O3)n1 the listed Emax is 156

For record CN(C)S(=O)(=O)c1ccc(Oc2cc(C(=O)Nc3cnn(C)n3)cc3c2CC(C)(C)O3)cc1 the listed Emax is 271

For record CN(C)S(=O)(=O)c1ccc(Oc2cc(C(=O)Nc3ccn(C)n3)cc3c2CC(C)(C)O3)cc1F the listed Emax is 236

For record Cn1ccc(NC(=O)c2cc(Oc3cccc(S(C)(=O)=O)c3)c3c(c2)OC(C)(C)C3)n1 the listed Emax is 149

For record Cn1ccc(NC(=O)c2cc(Oc3ccc(S(C)(=O)=O)cc3)c3c(c2)OC(C)(C)C3)n1 the listed Emax is 192

For record Cc1cc2c(Oc3ccc(S(C)(=O)=O)cc3)cc(C(=O)Nc3ccc(Cl)cn3)cc2o1 the listed Emax is 69

For record CN(C)C(=O)c1ccc(Oc2cc(C(=O)Nc3ccn(C)n3)cc3occc23)cc1F the listed Emax is 69

For record Cn1ccc(NC(=O)c2cc(Oc3ccc(C(=O)Nc4ccn(C)n4)nc3)c3c(c2)OC(C)(C)C3)n1 the listed Emax is 137

For record CCc1nc(O)cc(COc2cc(C(=O)Nc3ccn(C)n3)cc3c2CC(C)(C)O3)n1 the listed Emax is 134

For record COCC1Cc2c(Oc3ccc(C(=O)N(C)C)cc3)cc(C(=O)Nc3ccn(C)n3)cc2O1 (stereo not shown) the listed Emax is 90
